Numbers sourced from patent US20260234403A1.

- Test system: Wild-type (WT) U2OS cells
- assayExplanation: Reduction in nonspecific labeling of WT cells (number of tracks vs PA-JF549)
- Format: cell-based
- measurementContext: Table 4a, 100 nM, 1 hr, ratio with PA-JF549 in the numerator
For each of the molecules below, state its Fold reduction in nonspecific labeling.

-- ask Any idea what Fold reduction in nonspecific labeling was measured for CN(CCOCCOCCCCCCCl)C(=O)c1ccc2c(c1)C1(C(=[N+]=[N-])C2=O)c2ccc(N3CCC3)cc2Oc2cc(N3CCC3)ccc21 ?
-- reply 5-10

-- ask Another molecule to look at: CN1CC2CC(C1)N2c1ccc2c(c1)Oc1cc(N3C4CC3CN(C)C4)ccc1C21C(=[N+]=[N-])C(=O)c2ccc(C(=O)NCCOCCOCCCCCCCl)cc21 (stereo not drawn)
-- reply >10

-- ask Next molecule: CNC(=O)C1CN(c2ccc3c(c2)Oc2cc(N4CC(C(=O)NC)C4)ccc2C32C(=[N+]=[N-])C(=O)c3ccc(C(=O)NCCOCCOCCCCCCCl)cc32)C1
-- reply >10

-- ask // query: [N-]=[N+]=C1C(=O)c2ccc(C(=O)NCCOCCOCCCCCCCl)cc2C12c1ccc(N3CC(C(=O)O)C3)cc1Oc1cc(N3CC(C(=O)O)C3)ccc12 [Reference Example 2]
-- reply >10

-- ask Please answer likewise for [N-]=[N+]=C1C(=O)c2ccc(C(=O)NCCOCCOCCCCCCCl)cc2C12c1ccc(N3CC(C(=O)N4CCCC4)C3)cc1Oc1cc(N3CC(C(=O)N4CCCC4)C3)ccc12
-- reply 5-10

-- ask Would you kindly repeat that for CN(C)C(=O)C1CN(c2ccc3c(c2)Oc2cc(N4CC(C(=O)N(C)C)C4)ccc2C32C(=[N+]=[N-])C(=O)c3ccc(C(=O)NCc4ccc(COc5nc(N)nc6nc[nH]c56)cc4)cc32)C1 ?
-- reply >10

-- ask Okay, and CN(C)C1CN(c2ccc3c(c2)Oc2cc(N4CC(N(C)C)C4)ccc2C32C(=[N+]=[N-])C(=O)c3ccc(C(=O)NCCOCCOCCCCCCCl)cc32)C1 ?
-- reply 5-10

-- ask # repeat for [N-]=[N+]=C1C(=O)c2ccc(C(=O)NCCOCCOCCCCCCCl)cc2C12c1ccc(N3CC(O)C3)cc1Oc1cc(N3CC(O)C3)ccc12
-- reply >10

-- ask And what about the molecule CN(C)C(=O)[C@@H]1CCN1c1ccc2c(c1)Oc1cc(N3CC[C@H]3C(=O)N(C)C)ccc1C21C(=[N+]=[N-])C(=O)c2ccc(C(=O)NCCOCCOCCCCCCCl)cc21 ?
-- reply >10

-- ask Subsequent entry: [N-]=[N+]=C1C(=O)c2ccc(C(=O)NCCOCCOCCCCCCCl)cc2C12c1ccc(N3CC[C@@H]3CO)cc1Oc1cc(N3CC[C@@H]3CO)ccc12
-- reply 5-10

-- ask Now the same for CN(C)C(=O)C1CN(c2ccc3c(c2)Oc2cc(N4CC(C(=O)N(C)C)C4)ccc2C32C(=[N+]=[N-])C(=O)c3ccc(C(=O)NCCOCCOCCCCCCCl)cc32)C1
-- reply >10

-- ask Another molecule to check: COC(=O)C1CN(c2ccc3c(c2)Oc2cc(N4CC(C(=O)OC)C4)ccc2C32C(=[N+]=[N-])C(=O)c3ccc(C(=O)NCCOCCOCCCCCCCl)cc32)C1 [Reference Example 1]
-- reply >10

-- ask Also COC[C@H]1CCN1c1ccc2c(c1)Oc1cc(N3CC[C@@H]3COC)ccc1C21C(=[N+]=[N-])C(=O)c2ccc(C(=O)NCCOCCOCCCCCCCl)cc21 , if possible.
-- reply 1-5

-- ask // next record CN(C)C(=O)[C@H]1CCN(c2ccc3c(c2)Oc2cc(N4CC[C@H](C(=O)N(C)C)C4)ccc2C32C(=[N+]=[N-])C(=O)c3ccc(C(=O)NCCOCCOCCCCCCCl)cc32)C1
-- reply 5-10

-- ask Try COC(=O)[C@H]1CCN1c1ccc2c(c1)Oc1cc(N3CC[C@@H]3C(=O)OC)ccc1C21C(=[N+]=[N-])C(=O)c2ccc(C(=O)NCCOCCOCCCCCCCl)cc21 next.
-- reply 1-5

-- ask Follow-up item: [N-]=[N+]=C1C(=O)c2ccc(C(=O)NCCOCCOCCCCCCCl)cc2C12c1ccc(N3C4COCC3C4)cc1Oc1cc(N3C4COCC3C4)ccc12 (stereo not drawn)
-- reply 1-5

-- ask Entry [N-]=[N+]=C1C(=O)c2ccc(C(=O)NCCOCCOCCCCCCCl)cc2C12c1ccc(N3CC(C(=O)N4CCOCC4)C3)cc1Oc1cc(N3CC(C(=O)N4CCOCC4)C3)ccc12 please
-- reply >10

-- ask Would you mind doing CN1CCN(C(=O)C2CN(c3ccc4c(c3)Oc3cc(N5CC(C(=O)N6CCN(C)CC6)C5)ccc3C43C(=[N+]=[N-])C(=O)c4ccc(C(=O)NCCOCCOCCCCCCCl)cc43)C2)CC1 as well?
-- reply 1-5
